From: the supplement of paper PMC10219994

B1: library; a variant is named by its letters at N, in order (parent)
chain: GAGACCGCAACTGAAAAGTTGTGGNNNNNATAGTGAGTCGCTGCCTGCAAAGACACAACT

Variants of: B1
Experiment: ligation selection enrichment (abundance after / before one-round selection) (fold); higher = more template-directed ligation activity
Conditions: with T7Psub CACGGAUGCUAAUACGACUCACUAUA; MgCl2 25 mM; 42 °C; 4 h; pH 8.5
variants and their reported ligation selection enrichment
Field format: numeric only.

A selection of reference data follows.
{"mutant code": "GGTTG", "ligation selection enrichment": 3.91}
{"mutant code": "AACAT", "ligation selection enrichment": 0.729}
{"mutant code": "CGATG", "ligation selection enrichment": 1.3}

[in] Give its ligation selection enrichment value. Item: `TACGG`
[out] 0.379

[in] Can you handle `CTATA` next?
[out] 0.148
